Test system: KB
Experiment: Cytotoxicity against human KB cells after 72 hrs by methylene blue assay
Assay type: functional, cell-based
# IC50 per entry
Metric Name: IC50

* CC(=O)O[C@@H]1C2=C(C)[C@@H](O)C[C@@]2(C(C)(C)O)[C@@H](OC(C)=O)[C@@H]2[C@]3(OC(C)=O)CO[C@@H]3C[C@H](OC(C)=O)[C@@]2(C)[C@H]1O | > 20 µg/mL
* CC(=O)O[C@H]1C(=O)[C@@]2(C)[C@H]([C@H](OC(=O)c3ccccc3)[C@]3(O)C[C@H](OC(=O)[C@H](O)[C@@H](NC(=O)c4ccccc4)c4ccccc4)C(C)=C1C3(C)C)[C@]1(OC(C)=O)CO[C@@H]1C[C@@H]2O | < 0.1 µg/mL
* CC(=O)OC[C@H]1[C@H]2[C@H](O)[C@]3(C(C)(C)O)C[C@H](O)C(C)=C3[C@@H](O)[C@H](OC(C)=O)[C@]2(C)[C@@H](OC(C)=O)C[C@@H]1OC(C)=O | 3.9 µg/mL
* CC(=O)O[C@@H]1C2=C(C)[C@@H](OC(=O)c3ccccc3)C[C@@]2(C(C)(C)O)[C@@H](O)[C@@H]2[C@]3(OC(C)=O)CO[C@@H]3C[C@H](OC(C)=O)[C@@]2(C)[C@H]1OC(=O)c1ccccc1 | > 20 µg/mL
* CC(=O)OC[C@H]1[C@H]2[C@H](O)[C@]3(C(C)(C)O)C[C@H](OC(C)=O)C(C)=C3[C@@H](OC(C)=O)[C@H](OC(C)=O)[C@]2(C)[C@@H](OC(C)=O)C[C@@H]1OC(C)=O | > 20 µg/mL
* CC(=O)OC[C@H]1[C@H]2[C@H](O)[C@]3(C(C)(C)O)C[C@H](OC(C)=O)C(C)=C3[C@@H](O)[C@H](OC(C)=O)[C@]2(C)[C@@H](OC(C)=O)C[C@@H]1OC(C)=O | 10.3 µg/mL
